test system: MDA-MB-453; experiment: Cytotoxicity against human MDA-MB-453 cells incubated for 72 hrs by MTT assay; type: functional
measurement_name: CC50

Problem: Given the compound `CC(C)[C@@H]1CC[C@]2(COC(=O)c3ccccc3)CC[C@]3(C)[C@H](CC[C@@H]4[C@@]5(C)O[C@H](CC#N)C(C)(C)[C@@H]5CC[C@]43C)[C@@H]12` , what is its reported CC50?
Result: > 100 µM

Problem: `CC(C)[C@@H]1CC[C@]2(COC(=O)c3ccccc3)CC[C@]3(C)[C@H](CC[C@@H]4[C@@]5(C)[C@@H](O)C=CC(C)(C)[C@@H]5CC[C@]43C)[C@@H]12` , same question.
Result: > 100 µM

Problem: `CC(C)[C@@H]1CC[C@]2(COC(=O)c3ccccc3)CC[C@]3(C)[C@H](CC[C@@H]4[C@@]5(C)/C(=N/O)C[C@@H](O)C(C)(C)[C@@H]5CC[C@]43C)[C@@H]12` , same question.
Result: > 100 µM

---

system: HepG2; assay: Cytotoxicity against human HepG2 cells incubated for 72 hrs by MTT assay; assay type: functional
measurement_name: CC50

Problem: Given the molecule `CC(C)[C@@H]1CC[C@]2(COC(=O)c3ccccc3)CC[C@]3(C)[C@H](CC[C@@H]4[C@@]5(C)CC=CC(C)(C)[C@@H]5CC[C@]43C)[C@@H]12` , what is its reported CC50?
Result: > 100 µM

Problem: `CC(C)[C@@H]1CC[C@]2(CO)CC[C@]3(C)[C@H](CC[C@@H]4[C@@]5(C)O[C@H](CC#N)C(C)(C)[C@@H]5CC[C@]43C)[C@@H]12` , same question.
Result: > 200 µM

Problem: `CC1(C)CC[C@]23CC[C@]4(C)[C@H](CC[C@@H]5[C@@]6(C)O[C@H](CC#N)C(C)(C)[C@@H]6CC[C@]54C)[C@H]2[C@H]1OC3` , same question.
Result: > 100 µM

Problem: CC(C)[C@@H]1CC[C@]2(COCc3ccccc3)CC[C@]3(C)[C@H](CC[C@@H]4C(=O)C(C(C)(C)[C@H](CC#N)OC(=O)Cl)CC[C@]43C)[C@@H]12 (stereo partly specified) , same question.
Result: > 100 µM

Problem: `C=C1[C@H]2CC[C@@H]3[C@H]4[C@H](C(C)C)CC[C@]4(COC(=O)c4ccccc4)CC[C@@]3(C)[C@]2(C)CC[C@@H]1C(C)(C)[C@@H]1O[C@H]1C#N` , same question.
Result: > 100 µM

Problem: `COc1cccc2c1C(=O)c1c(O)c3c(c(O)c1C2=O)C[C@@](O)(C(=O)CO)C[C@@H]3O[C@H]1C[C@H](N)[C@H](O)[C@H](C)O1` , same question.
Result: 1.8 µM

Problem: `CC(C)[C@@H]1CC[C@]2(COC(=O)c3ccccc3)CC[C@]3(C)[C@H](CC[C@@H]4[C@@]5(C)/C(=N/O)C[C@@H](O)C(C)(C)[C@@H]5CC[C@]43C)[C@@H]12` , same question.
Result: > 100 µM

Problem: `CC(C)[C@@H]1CC[C@]2(COC(=O)c3ccccc3)CC[C@]3(C)[C@H](CC[C@@H]4[C@@]5(C)C(=O)[C@H]6O[C@H]6C(C)(C)[C@@H]5CC[C@]43C)[C@@H]12` , same question.
Result: > 100 µM

Problem: CC(C)[C@@H]1CC[C@]2(COC(=O)c3ccccc3)CC[C@]3(C)[C@H](CC[C@@H]4[C@@]5(C)OC(CC#N)C(C)(C)[C@@H]5CC[C@]43C)[C@@H]12 (mixture of isomers) , same question.
Result: > 100 µM

Problem: CC1(C)CC[C@]23CC[C@]4(C)C(CC[C@@H]5C(=O)C(C(C)(C)[C@H](CC#N)OC(=O)Cl)CC[C@]54C)[C@H]2[C@H]1OC3 (stereo partly specified) , same question.
Result: > 100 µM

Problem: `CC(C)[C@@H]1CC[C@]2(CO)CC[C@]3(C)[C@H](CC[C@@H]4[C@@]5(C)/C(=N/O)C[C@@H](O)C(C)(C)[C@@H]5CC[C@]43C)[C@@H]12` , same question.
Result: > 100 µM

---

Kindly state CC50 for each of the entries shown.
system: MDA-MB-453; assay: Cytotoxicity against human MDA-MB-453 cells incubated for 72 hrs by MTT assay; type: functional

Problem: Given the compound `CC(C)[C@@H]1CC[C@]2(COC(=O)c3ccccc3)CC[C@]3(C)[C@H](CC[C@@H]4[C@@]5(C)[C@@H](O)[C@H]6O[C@H]6C(C)(C)[C@@H]5CC[C@]43C)[C@@H]12` , what is its reported CC50?
Result: > 100 µM

Problem: `CC(C)[C@@H]1CC[C@]2(COC(=O)c3ccccc3)CC[C@]3(C)[C@H](CC[C@@H]4[C@@]5(C)C(=O)[C@H]6O[C@H]6C(C)(C)[C@@H]5CC[C@]43C)[C@@H]12` , same question.
Result: > 100 µM

Problem: COc1cccc2c1C(=O)c1c(O)c3c(c(O)c1C2=O)C[C@@](O)(C(=O)CO)C[C@@H]3O[C@H]1C[C@H](N)[C@H](O)[C@H](C)O1 [DOXORUBICIN] , same question.
Result: 0.04 µM
